This collection of values is drawn from paper PMC11412156.

Target: HDAC6 (Homo sapiens, UniProt Q9UBN7)
Sequence (Q9UBN7 whole entry): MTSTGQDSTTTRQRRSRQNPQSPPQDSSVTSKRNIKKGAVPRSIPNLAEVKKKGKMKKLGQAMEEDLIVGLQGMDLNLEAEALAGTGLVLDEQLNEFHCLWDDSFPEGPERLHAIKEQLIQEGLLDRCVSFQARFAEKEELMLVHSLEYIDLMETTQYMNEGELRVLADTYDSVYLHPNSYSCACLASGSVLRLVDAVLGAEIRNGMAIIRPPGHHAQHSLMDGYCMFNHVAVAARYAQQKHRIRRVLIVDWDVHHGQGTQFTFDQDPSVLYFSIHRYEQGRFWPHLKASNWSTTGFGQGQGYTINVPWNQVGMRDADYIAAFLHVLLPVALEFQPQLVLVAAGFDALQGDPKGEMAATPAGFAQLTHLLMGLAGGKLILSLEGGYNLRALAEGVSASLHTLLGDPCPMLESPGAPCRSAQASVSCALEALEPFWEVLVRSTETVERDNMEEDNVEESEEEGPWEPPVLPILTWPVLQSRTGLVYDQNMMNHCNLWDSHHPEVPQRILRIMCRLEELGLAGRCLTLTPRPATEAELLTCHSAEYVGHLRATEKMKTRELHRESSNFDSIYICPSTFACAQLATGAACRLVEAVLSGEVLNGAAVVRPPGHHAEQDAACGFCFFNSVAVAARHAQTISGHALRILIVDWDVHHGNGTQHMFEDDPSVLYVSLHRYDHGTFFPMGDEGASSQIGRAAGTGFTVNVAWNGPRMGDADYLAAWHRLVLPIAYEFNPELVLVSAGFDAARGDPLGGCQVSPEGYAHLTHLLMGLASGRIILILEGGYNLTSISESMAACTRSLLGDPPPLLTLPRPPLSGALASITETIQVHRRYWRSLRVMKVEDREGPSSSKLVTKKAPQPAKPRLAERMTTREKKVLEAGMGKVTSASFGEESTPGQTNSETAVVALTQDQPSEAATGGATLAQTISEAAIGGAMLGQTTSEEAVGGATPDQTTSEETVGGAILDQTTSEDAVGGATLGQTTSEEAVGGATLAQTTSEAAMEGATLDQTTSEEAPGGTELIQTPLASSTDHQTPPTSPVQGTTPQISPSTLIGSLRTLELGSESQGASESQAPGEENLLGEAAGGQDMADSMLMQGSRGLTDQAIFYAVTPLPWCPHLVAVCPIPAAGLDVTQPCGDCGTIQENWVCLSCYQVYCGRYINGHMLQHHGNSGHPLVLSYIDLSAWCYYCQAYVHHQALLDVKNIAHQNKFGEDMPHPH
Experiment: HDAC enzyme-based fluorogenic assay, HDAC6
Type: biochemical
Conditions: final concentration of 2 μM, preliminary screen
measurement label: HDAC6 inhibitor rate (%)
Answer with a number only, understood to be in %.

| compound | unit name | HDAC6 inhibitor rate |
| --- | --- | --- |
| O=C(CCCCCCNC(=O)[C@H]1CCCN(C(=O)c2ccc(NC(=O)NC(c3ccccc3)c3ccccc3)c(F)c2)C1)NO [Compound 28k] | % | 63.58 |

Enquiry: What value of HDAC6 inhibitor rate has been recorded for this entry: C[C@]12C[C@@H]3C[C@](C)(C1)C[C@@](NC(=O)Nc1ccc(CN4CCC[C@H](C(=O)NCCCCCCC(=O)NO)C4)cc1F)(C3)C2 [Compound 16d]
Return: 63

Enquiry: Same read-out for `C[C@]12C[C@@H]3C[C@](C)(C1)C[C@@](NC(=O)Nc1ccc(C(=O)N4CCC[C@H](C(=O)NCCCCCCC(=O)NO)C4)cc1F)(C3)C2` ?
Return: 63

Enquiry: Same read-out for CC12CC3CC(C)(C1)CC(Nc1c(Nc4ccc(C(=O)N5CCC[C@H](C(=O)NCCCCCCC(=O)NO)C5)cc4)c(=O)c1=O)(C3)C2 [Compound 40d] ?
Return: 99.66
